Assay: Anti-osteoclastogensis activity C57BL/6 mouse bone marrow macrophages assessed as inhibition of RANKL-induced osteoclastogenesis and measured after 5 days in presence of M-CSF by TRAP staining based assay
Assay type: functional, cell-based
Details: bmdm
Provide the recorded pIC50 for the entries that follow.
Please keep in mind that pIC50 is minus log10 of the molar concentration; only the number is needed.

Please report the recorded pIC50 for "OC/C=C/C#CC#C/C=C/c1ccco1" . 6.19

// pIC50 lookup, key: CC(=O)OCCC(/C=C/C=C/C#CC#C/C=C/CO)OC(C)=O (configuration not stated) 5.89
